- assayed.system: MC5R (Homo sapiens)
- Construct: expressed in transfected cells
- Sequence (P33032 whole entry): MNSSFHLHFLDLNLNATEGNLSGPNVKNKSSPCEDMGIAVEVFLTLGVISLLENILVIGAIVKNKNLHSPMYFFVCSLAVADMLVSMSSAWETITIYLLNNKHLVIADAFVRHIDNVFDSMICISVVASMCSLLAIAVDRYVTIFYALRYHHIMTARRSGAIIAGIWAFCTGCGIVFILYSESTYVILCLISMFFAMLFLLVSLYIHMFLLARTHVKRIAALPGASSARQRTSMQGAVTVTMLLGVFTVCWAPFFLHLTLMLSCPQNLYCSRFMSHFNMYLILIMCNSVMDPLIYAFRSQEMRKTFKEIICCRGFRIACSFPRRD
- test.summary: In vitro activity of MCR receptors, intracellular cAMP signal (HEK293T/MCR cell line), MC5R
- Assay type: cell-based
- Experimental: Test purpose: to evaluate the agonistic effect of the compound on MCRs by detecting intracellular cAMP signal changes. Cells were resuspended with 1×PBS+500 μM IBMX. 10 μL of the cell suspension was added into a 384-well plate to be tested, and the cell concentration was adjusted to 1×10^4 cells per well for later use. […] The test plate was placed in the Envision multifunctional microplate reader for reading, with a detection wavelength of 665/615 nm.
assay.metric: EC50 (µM)
One number for each entry, in µM.

// solved cases for EC50 follow
molecule="C[C@@H]1CN(C(=O)C2CN(C(C)(C)C)CC2c2ccc(Cl)cc2)C[C@H](C)N1c1ccc(F)cc1 (single isomer, unassigned)" assayed_system="MC5R (Homo sapiens)" value=0.402
molecule="C[C@@H]1CN(C(=O)C2CN(c3cccnn3)CC2c2ccc(F)cc2F)C[C@H](C)N1c1ccc(F)cc1 (single isomer, unassigned)" assayed_system="MC5R (Homo sapiens)" value=2.13
molecule="C[C@@H]1CN(C(=O)C2CN(c3ccc(C#N)cn3)CC2c2ccc(F)cc2F)C[C@H](C)N1c1ccc(F)cc1 (single isomer, unassigned)" assayed_system="MC5R (Homo sapiens)" value=0.74

Ask: Could you tell me which EC50 is on file for C[C@@H]1CN(C(=O)C2CN(C3CCOCC3)CC2c2ccc(Cl)cc2)C[C@H](C)N1c1ccc(F)cc1 (single isomer, unassigned) ?
Reply: 1.17

Numbers sourced from patent US20240238281A1.
